- Tested On: GABA receptor subunit (Musca domestica)
- Sequence (Q75NA5 whole entry): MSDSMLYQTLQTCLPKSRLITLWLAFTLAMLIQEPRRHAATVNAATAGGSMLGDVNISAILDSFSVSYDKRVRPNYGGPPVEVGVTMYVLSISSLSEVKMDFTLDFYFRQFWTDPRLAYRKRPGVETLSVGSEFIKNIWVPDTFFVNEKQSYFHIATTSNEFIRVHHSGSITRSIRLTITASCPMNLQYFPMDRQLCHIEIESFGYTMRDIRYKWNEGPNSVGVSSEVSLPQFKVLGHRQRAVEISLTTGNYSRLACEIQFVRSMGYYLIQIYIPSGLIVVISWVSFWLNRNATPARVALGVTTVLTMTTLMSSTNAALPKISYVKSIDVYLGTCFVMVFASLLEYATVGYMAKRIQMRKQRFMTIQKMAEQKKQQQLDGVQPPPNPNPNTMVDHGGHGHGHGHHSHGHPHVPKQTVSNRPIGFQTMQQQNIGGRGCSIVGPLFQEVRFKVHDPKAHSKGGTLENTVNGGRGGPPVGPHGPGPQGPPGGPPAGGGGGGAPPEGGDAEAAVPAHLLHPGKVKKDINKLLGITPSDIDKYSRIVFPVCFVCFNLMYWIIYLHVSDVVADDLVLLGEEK
- Test Summary: Inhibition of Musca domestica (house fly) GABA receptor
Entries and their IC50 values follow.
Your answer should be a plain number; it is taken to be in µM.

                                   compound  unit_of_measure  numeric_result
0  Cl[C@H]1[C@H](Cl)[C@@H](Cl)[C@@H](Cl)[C@H](Cl)[C@H]1Cl               µM           0.011
1  N#Cc1nn(-c2c(Cl)cc(C(F)(F)F)cc2Cl)c(N)c1[S+]([O-])C(F)(F)F (stereo not drawn)               µM          0.0023

# lookup: IC50 of O=S1OC[C@@H]2[C@H](CO1)[C@@]1(Cl)C(Cl)=C(Cl)[C@]2(Cl)C1(Cl)Cl (stereo partly drawn) [ALPHA-ENDOSULFAN]
0.01

----------
- Tested On: Gamma-aminobutyric acid receptor subunit rho-1 (Homo sapiens)
- Sequence (P24046 whole entry): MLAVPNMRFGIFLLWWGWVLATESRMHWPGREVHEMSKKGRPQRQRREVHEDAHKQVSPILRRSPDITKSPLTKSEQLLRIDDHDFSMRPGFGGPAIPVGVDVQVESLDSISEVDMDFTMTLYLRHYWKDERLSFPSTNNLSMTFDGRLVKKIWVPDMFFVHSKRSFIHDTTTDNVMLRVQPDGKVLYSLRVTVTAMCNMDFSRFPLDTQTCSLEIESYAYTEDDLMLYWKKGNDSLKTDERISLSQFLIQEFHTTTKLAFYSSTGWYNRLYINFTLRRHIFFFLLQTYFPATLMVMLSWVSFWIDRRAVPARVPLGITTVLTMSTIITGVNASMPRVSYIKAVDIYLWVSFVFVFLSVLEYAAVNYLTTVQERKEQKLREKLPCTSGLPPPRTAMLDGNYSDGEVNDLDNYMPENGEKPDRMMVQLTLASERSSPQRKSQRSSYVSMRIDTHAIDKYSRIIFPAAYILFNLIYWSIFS
- Test Summary: Displacement of [3H]EBOB from recombinant Homo sapiens (human) GABA rho1 receptor
Entries and their IC50 values follow.
Your answer should be a plain number; it is taken to be in nM.

>>> print(df.to_string())
                                   compound                                 tested_on  readout_type  unit_of_measure  numeric_result
0  O=S1OC[C@@H]2[C@H](CO1)[C@@]1(Cl)C(Cl)=C(Cl)[C@]2(Cl)C1(Cl)Cl (stereo partly drawn) [ALPHA-ENDOSULFAN]  Gamma-aminobutyric acid receptor subunit rho-1 (Homo sapiens)          IC50               nM             800

Query compound follows.
# lookup: IC50 of Cl[C@H]1[C@H](Cl)[C@@H](Cl)[C@@H](Cl)[C@H](Cl)[C@H]1Cl [LINDANE]
91

----------
- Test Summary: Selectivity ratio of IC50 for recombinant human GABA receptor to IC50 for housefly GABA receptor
Entries and their Ratio IC50 values follow.
Reply with just the number.

Worked cases, answers included:
>>> print(df.to_string())
                                   molecule  numeric_result
0  O=S1OC[C@@H]2[C@H](CO1)[C@@]1(Cl)C(Cl)=C(Cl)[C@]2(Cl)C1(Cl)Cl (stereo partly drawn) [ALPHA-ENDOSULFAN]            0.73
1  Cl[C@H]1[C@H](Cl)[C@@H](Cl)[C@@H](Cl)[C@H](Cl)[C@H]1Cl [LINDANE]              28
2  N#Cc1nn(-c2c(Cl)cc(C(F)(F)F)cc2Cl)c(N)c1[S+]([O-])C(F)(F)F (centres undefined) [FIPRONIL]            1090

Query molecule follows.
# lookup: Ratio IC50 of "C#Cc1ccc(C23OCC(CCC)(CO2)CO3)cc1"
5

----------
- Tested On: GABA-A receptor alpha-1/beta-3 (Homo sapiens, UniProt P14867+P28472)
- Sequence (P14867 whole entry): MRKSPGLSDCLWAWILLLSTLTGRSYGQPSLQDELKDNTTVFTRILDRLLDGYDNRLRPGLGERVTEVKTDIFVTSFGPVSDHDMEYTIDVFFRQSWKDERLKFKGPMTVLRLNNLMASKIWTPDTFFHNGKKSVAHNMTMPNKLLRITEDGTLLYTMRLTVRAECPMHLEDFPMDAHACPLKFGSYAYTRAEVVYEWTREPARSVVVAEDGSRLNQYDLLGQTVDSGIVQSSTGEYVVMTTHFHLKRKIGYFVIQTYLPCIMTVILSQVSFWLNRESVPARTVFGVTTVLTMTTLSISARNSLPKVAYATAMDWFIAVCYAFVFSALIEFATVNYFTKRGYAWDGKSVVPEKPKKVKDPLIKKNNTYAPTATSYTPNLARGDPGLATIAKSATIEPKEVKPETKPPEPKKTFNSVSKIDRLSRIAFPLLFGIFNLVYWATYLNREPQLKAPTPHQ
- Sequence (P28472 whole entry): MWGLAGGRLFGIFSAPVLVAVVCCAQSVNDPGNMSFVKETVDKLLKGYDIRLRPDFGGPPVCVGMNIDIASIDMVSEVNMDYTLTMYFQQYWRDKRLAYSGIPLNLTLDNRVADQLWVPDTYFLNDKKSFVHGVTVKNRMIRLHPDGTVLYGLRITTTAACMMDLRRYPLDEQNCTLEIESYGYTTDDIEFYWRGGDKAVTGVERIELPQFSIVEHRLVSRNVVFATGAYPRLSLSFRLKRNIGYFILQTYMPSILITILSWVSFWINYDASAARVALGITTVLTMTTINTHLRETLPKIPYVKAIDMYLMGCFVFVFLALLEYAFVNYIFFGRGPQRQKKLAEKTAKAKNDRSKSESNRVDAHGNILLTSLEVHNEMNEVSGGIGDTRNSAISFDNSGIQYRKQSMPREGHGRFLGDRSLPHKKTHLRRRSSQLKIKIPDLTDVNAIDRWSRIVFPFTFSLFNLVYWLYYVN
- Test Summary: Displacement of [3H]EBOB from recombinant Homo sapiens (human) GABA alpha1beta3 receptor
Readout Type: IC50 (nM)
Your answer should be a plain number; it is taken to be in nM.

                                   compound  numeric_result
0  Cl[C@H]1[C@H](Cl)[C@@H](Cl)[C@@H](Cl)[C@H](Cl)[C@H]1Cl              12
1  O=S1OC[C@@H]2[C@H](CO1)[C@@]1(Cl)C(Cl)=C(Cl)[C@]2(Cl)C1(Cl)Cl (stereo partly drawn) [ALPHA-ENDOSULFAN]             8.3

Query compound follows.
# lookup: IC50 of N#Cc1nn(-c2c(Cl)cc(C(F)(F)F)cc2Cl)c(N)c1[S+]([O-])C(F)(F)F (stereo not drawn)
28
